# Assayed target: rat PDE2A (Rattus norvegicus, UniProt Q01062)
# Construct: Frozen sagittal 12 µm brain sections obtained from female SPRD and male Wistar-Han rats; from tissue; host or cells: rat brain cryosections (female SPRD and male Wistar-Han rats)
# Sequence (Q01062 1-928): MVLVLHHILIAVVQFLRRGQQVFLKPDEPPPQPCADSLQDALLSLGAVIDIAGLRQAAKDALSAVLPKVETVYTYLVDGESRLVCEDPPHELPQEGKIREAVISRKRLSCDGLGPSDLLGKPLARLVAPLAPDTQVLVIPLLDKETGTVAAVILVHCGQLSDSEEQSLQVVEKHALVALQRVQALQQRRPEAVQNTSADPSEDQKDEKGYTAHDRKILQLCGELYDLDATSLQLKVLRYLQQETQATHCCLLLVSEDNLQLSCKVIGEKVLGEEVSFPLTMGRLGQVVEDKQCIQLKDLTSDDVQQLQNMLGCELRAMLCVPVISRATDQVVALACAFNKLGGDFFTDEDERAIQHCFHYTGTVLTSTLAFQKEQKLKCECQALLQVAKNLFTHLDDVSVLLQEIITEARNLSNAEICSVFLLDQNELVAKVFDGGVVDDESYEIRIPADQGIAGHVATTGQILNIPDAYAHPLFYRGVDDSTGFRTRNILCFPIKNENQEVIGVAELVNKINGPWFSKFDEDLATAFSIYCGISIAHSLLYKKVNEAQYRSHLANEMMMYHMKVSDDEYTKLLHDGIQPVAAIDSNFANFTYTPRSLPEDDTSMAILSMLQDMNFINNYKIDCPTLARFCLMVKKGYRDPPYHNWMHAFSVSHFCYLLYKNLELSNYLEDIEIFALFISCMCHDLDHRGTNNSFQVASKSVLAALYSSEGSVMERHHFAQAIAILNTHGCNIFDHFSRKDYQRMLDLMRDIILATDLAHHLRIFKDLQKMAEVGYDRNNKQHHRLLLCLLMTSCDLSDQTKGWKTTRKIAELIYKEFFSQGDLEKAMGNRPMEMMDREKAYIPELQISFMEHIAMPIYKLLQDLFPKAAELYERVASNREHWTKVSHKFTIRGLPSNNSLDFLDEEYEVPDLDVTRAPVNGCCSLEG
# Assay name: In vitro autoradiography with rat brain cryosections
# Format: binding
# Condition set: caudate putamen; female SPRD rat; read-out: apparent KD
# Description: Frozen sagittal 12 µm brain sections obtained from female SPRD and male Wistar-Han rats (10–12 weeks old) were thawed, dried in a stream of cold air, and pre-incubated for 15 min with incubation buffer (50 mM TRIS-HCl, pH 7.4; supplemented with 1 mM MgCl2, 1 mM CaCl2, 2 mM KCl, and 2 U/mL Adenosine deaminase) at ambient temperature. […]
Readout: pKd
On this scale, pKd is minus log10 of a concentration expressed in M (mol/L).

Request: So what pKd did CCCC(O)c1ccc([18F])c(-c2nnc3c(C)nc4ccc(C5CC5)nc4n23)c1 (stereo not shown) [[^18F]11] get with rat PDE2A (Rattus norvegicus, UniProt Q01062)?
Result: 9.42

----------
# Assay name: logD by shake flask method (n-octanol/PBS)
# Format: physicochemical
# Condition set: n-octanol/phosphate-buffered saline, n = 4
Readout: logD

Request: Consider the compound shown here: CCCC(O)c1ccc([18F])c(-c2nnc3c(C)nc4ccc(C5CC5)nc4n23)c1 (stereo not shown) [[^18F]11] What is its recorded logD?
Result: 1.79

----------
# Assayed target: rat PDE2A (Rattus norvegicus)
# Construct: Frozen sagittal 12 µm brain sections obtained from female SPRD and male Wistar-Han rats; from tissue; host or cells: rat brain cryosections (female SPRD and male Wistar-Han rats)
# Assay name: In vitro autoradiography with rat brain cryosections
# Assay type: binding
# Condition set: caudate putamen; male Wistar-Han rat; read-out: apparent KD
Readout: Kd (pM)
Write it as a number; the unit pM goes unstated.

Request: Endpoint output: Kd of CCCC(O)c1ccc([18F])c(-c2nnc3c(C)nc4ccc(C5CC5)nc4n23)c1 (stereo not shown) [[^18F]11] . Value?
Result: 100
